Target: T1, VCL 1-259 Vinculin (domain begin residue: 1, domain end residue: 259), P18206
T1 chain: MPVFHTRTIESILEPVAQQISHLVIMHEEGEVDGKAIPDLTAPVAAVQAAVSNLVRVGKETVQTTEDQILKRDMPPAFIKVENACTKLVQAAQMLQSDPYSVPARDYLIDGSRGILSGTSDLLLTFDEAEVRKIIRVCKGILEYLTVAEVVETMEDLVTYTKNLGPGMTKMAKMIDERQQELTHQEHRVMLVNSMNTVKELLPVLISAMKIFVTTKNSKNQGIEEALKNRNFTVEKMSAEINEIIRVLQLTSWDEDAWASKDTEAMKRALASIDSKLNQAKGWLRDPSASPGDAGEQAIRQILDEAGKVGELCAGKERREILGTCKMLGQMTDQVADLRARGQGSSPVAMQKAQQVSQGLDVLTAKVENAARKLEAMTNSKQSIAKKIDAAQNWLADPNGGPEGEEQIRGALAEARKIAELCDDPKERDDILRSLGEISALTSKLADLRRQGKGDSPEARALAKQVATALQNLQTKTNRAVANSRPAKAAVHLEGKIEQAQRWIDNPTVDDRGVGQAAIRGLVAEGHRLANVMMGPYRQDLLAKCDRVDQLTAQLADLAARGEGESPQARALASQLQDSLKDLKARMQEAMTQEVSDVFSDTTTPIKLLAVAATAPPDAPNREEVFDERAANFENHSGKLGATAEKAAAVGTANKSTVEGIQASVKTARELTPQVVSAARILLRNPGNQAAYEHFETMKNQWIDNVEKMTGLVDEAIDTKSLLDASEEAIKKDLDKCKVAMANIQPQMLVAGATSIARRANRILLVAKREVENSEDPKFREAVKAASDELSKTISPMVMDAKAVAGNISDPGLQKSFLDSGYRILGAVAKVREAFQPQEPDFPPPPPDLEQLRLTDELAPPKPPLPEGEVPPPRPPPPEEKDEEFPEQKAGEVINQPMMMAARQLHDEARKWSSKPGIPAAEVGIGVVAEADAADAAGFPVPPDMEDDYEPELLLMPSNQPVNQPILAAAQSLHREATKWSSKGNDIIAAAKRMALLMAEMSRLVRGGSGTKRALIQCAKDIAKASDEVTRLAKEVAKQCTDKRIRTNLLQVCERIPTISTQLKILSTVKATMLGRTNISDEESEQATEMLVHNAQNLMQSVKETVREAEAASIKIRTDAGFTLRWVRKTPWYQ
Assay: phage ELISA signal ratio (GST-PRM binding over GST background); higher = stronger binding of peptide-phage to the PRM
# phage ELISA signal ratio listing for each entry below
experimental_readout: phage ELISA signal ratio

>>> reported_measurement("DNWYWEAWDAAFLTNG")
20.4
>>> reported_measurement("FDTPLWEQAMWEALGE")
13.2
>>> reported_measurement("TAHDWIDEWLVQAMLQ")
20.3
>>> reported_measurement("APVVHDFDAYKMLMQL")
17.2
